# Test system: IPEC-1 cells
Endpoint Name: Toxicity (classification from IC50 compared with DON)

// worked examples, Toxicity (classification from IC50 compared with DON) included
O=C1N[C@@H](Cc2c[nH]c3ccccc23)C(=O)N2CCC[C@@H]12 [Brevianamide F]: Non-toxic
Cc1cc(O)c2c(c1)C(=O)c1cc(O)cc(O)c1C2=O: Moderately toxic
O=C1N[C@@H](Cc2ccc(O)cc2)C(=O)N2CCC[C@@H]12: Non-toxic
CC(C)[C@H]1C(=O)O[C@H](C(C)C)C(=O)N(C)[C@@H](C(C)C)C(=O)O[C@H](C(C)C)C(=O)N(C)[C@@H](C(C)C)C(=O)O[C@H](C(C)C)C(=O)N1C: Highly toxic
CC1=C[C@H]2O[C@@H]3[C@H](O)C[C@](C)([C@@]2(CO)[C@H](O)C1=O)[C@]31CO1: Highly toxic

Toxicity (classification from IC50 compared with DON) lookup needed for `CC[C@H](C)[C@H]1C(=O)O[C@H](C(C)C)C(=O)N(C)[C@@H](C(C)C)C(=O)O[C@H](C(C)C)C(=O)N(C)[C@@H](C(C)C)C(=O)O[C@H](C(C)C)C(=O)N1C` , thanks. Moderately toxic

Toxicity (classification from IC50 compared with DON) lookup needed for `CCC(=O)CCCCC[C@@H]1NC(=O)[C@H]2CCCCN2C(=O)[C@H]([C@@H](C)CC)NC(=O)[C@H](Cc2cn(OC)c3ccccc23)NC1=O` , thanks. Highly toxic

Toxicity (classification from IC50 compared with DON) lookup needed for `OCCc1c[nH]c2ccccc12` , thanks. Non-toxic

Toxicity (classification from IC50 compared with DON) lookup needed for `COC1=C(C2=C(OC)C(=O)c3cc4oc(C)cc(=O)c4c(O)c3C2=O)C(=O)c2c(cc3oc(C)cc(=O)c3c2O)C1=O` , thanks. Moderately toxic

---

Dear all, this message contains Toxicity of the emerging mycotoxin alone results, target or system IPEC-1 cells.
Endpoint Name: Toxicity of the emerging mycotoxin alone

CC[C@H](C)[C@H]1C(=O)O[C@H](C(C)C)C(=O)N(C)[C@@H](C(C)C)C(=O)O[C@H](C(C)C)C(=O)N(C)[C@@H](C(C)C)C(=O)O[C@H](C(C)C)C(=O)N1C [Enniatin B1]: minimal
CCC(=O)CCCCC[C@@H]1NC(=O)[C@H]2CCCCN2C(=O)[C@H]([C@@H](C)CC)NC(=O)[C@H](Cc2cn(OC)c3ccccc23)NC1=O [Apicidin]: not toxic
COC1=C(C2=C(OC)C(=O)c3cc4oc(C)cc(=O)c4c(O)c3C2=O)C(=O)c2c(cc3oc(C)cc(=O)c3c2O)C1=O [Aurofusarin]: minimal
CC(C)[C@H]1C(=O)O[C@H](C(C)C)C(=O)N(C)[C@@H](C(C)C)C(=O)O[C@H](C(C)C)C(=O)N(C)[C@@H](C(C)C)C(=O)O[C@H](C(C)C)C(=O)N1C [Enniatin B]: not toxic

---

# Test system: IPEC-1 cells
# Recorded Conditions: IPEC-1, 48 h, dose-effect curves
Endpoint Name: Individual toxicity compared with DON

Cc1cc(O)c2c(c1)C(=O)c1cc(O)cc(O)c1C2=O: less than that of DON
COC1=C(C2=C(OC)C(=O)c3cc4oc(C)cc(=O)c4c(O)c3C2=O)C(=O)c2c(cc3oc(C)cc(=O)c3c2O)C1=O: less than that of DON
CC[C@H](C)[C@H]1C(=O)O[C@H](C(C)C)C(=O)N(C)[C@@H](C(C)C)C(=O)O[C@H](C(C)C)C(=O)N(C)[C@@H](C(C)C)C(=O)O[C@H](C(C)C)C(=O)N1C: less than that of DON

---

# Test system: IPEC-1 cells
# Experiment Summary: cells
# Recorded Conditions: Sus scrofa, 48 h, read-out: IC50 (dose leading to a 50% reduction in cell viability)
Endpoint Name: IC50 (µM)
Form entry: value (µM) — number only.

# returns recorded IC50 (system: IPEC-1 cells) for `CCC(=O)CCCCC[C@@H]1NC(=O)[C@H]2CCCCN2C(=O)[C@H]([C@@H](C)CC)NC(=O)[C@H](Cc2cn(OC)c3ccccc23)NC1=O` 1.5

# returns recorded IC50 (system: IPEC-1 cells) for `CC(C)[C@H]1C(=O)O[C@H](C(C)C)C(=O)N(C)[C@@H](C(C)C)C(=O)O[C@H](C(C)C)C(=O)N(C)[C@@H](C(C)C)C(=O)O[C@H](C(C)C)C(=O)N1C` 4.4

# returns recorded IC50 (system: IPEC-1 cells) for `Cc1cc(O)c2c(c1)C(=O)c1cc(O)cc(O)c1C2=O` 19

# returns recorded IC50 (system: IPEC-1 cells) for `CC[C@H](C)[C@H]1C(=O)O[C@H](C(C)C)C(=O)N(C)[C@@H](C(C)C)C(=O)O[C@H](C(C)C)C(=O)N(C)[C@@H](C(C)C)C(=O)O[C@H](C(C)C)C(=O)N1C` 13.5

Each recorded value in this set is attributed to paper PMC6950336.
